Measurement Target: Cysteinyl leukotriene receptor 1 (Homo sapiens); note: in other assays of this panel Not Active means under 50% inhibition at 10 µM
Sequence (Q9Y271 whole entry): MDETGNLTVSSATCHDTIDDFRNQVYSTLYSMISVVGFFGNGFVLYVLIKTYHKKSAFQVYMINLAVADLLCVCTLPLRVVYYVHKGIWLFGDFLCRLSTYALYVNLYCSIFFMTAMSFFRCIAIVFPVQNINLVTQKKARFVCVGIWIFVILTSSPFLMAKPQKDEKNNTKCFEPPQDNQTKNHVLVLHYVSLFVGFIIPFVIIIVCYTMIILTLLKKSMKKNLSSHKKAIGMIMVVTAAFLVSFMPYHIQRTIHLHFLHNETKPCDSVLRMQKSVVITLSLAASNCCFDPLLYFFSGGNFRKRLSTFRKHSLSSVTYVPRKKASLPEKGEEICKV
Type: cell membranes, Membrane
Conditions: cho-k1
Measure Name: IC50

Solved cases below.
CC[C@H](C)C(=O)O[C@H]1C[C@@H](C)C=C2C=C[C@H](C)[C@H](CC[C@@H]3C[C@@H](O)CC(=O)O3)[C@H]21 : Not Active
CN(CCOc1ccc(CC2SC(=O)NC2=O)cc1)c1ccccn1 (stereo not drawn) : Not Active
CC(C)(CO)C(O)C(=O)NCCCO (stereo not drawn) : Not Active
CC[C@H](C)C(=O)O[C@H]1C[C@H](O)C=C2C=C[C@H](C)[C@H](CC[C@@H](O)C[C@@H](O)CC(=O)O)[C@H]21 : Not Active
C[C@]12C/C(=C/O)C(=O)C[C@@H]1CC[C@@H]1[C@@H]2CC[C@@]2(C)[C@H]1CC[C@]2(C)O : Not Active

Challenge: Item "COc1ccc(CN2CCNCC2)c(OC)c1OC" has what recorded IC50?
Response given: Not Active

Challenge: "C=C1/C(=C\C=C2/CCC[C@]3(C)[C@@H]([C@H](C)CCCC(C)C)CC[C@@H]23)C[C@@H](O)C[C@@H]1O" , same question.
Response given: Not Active

Challenge: Input "COc1cc(CNC(=O)CCCC/C=C/C(C)C)ccc1O"
Response given: Not Active

====

Measurement Target: Matrix metalloproteinase-9 (Homo sapiens, UniProt P14780); note: in other assays of this panel Not Active means under 50% inhibition at 10 µM;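 note: inhibition of isolated MMP-9 enzyme activity toward a synthetic peptide substrate, from the DrugMatrix protease screening panel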
Sequence (P14780 whole entry): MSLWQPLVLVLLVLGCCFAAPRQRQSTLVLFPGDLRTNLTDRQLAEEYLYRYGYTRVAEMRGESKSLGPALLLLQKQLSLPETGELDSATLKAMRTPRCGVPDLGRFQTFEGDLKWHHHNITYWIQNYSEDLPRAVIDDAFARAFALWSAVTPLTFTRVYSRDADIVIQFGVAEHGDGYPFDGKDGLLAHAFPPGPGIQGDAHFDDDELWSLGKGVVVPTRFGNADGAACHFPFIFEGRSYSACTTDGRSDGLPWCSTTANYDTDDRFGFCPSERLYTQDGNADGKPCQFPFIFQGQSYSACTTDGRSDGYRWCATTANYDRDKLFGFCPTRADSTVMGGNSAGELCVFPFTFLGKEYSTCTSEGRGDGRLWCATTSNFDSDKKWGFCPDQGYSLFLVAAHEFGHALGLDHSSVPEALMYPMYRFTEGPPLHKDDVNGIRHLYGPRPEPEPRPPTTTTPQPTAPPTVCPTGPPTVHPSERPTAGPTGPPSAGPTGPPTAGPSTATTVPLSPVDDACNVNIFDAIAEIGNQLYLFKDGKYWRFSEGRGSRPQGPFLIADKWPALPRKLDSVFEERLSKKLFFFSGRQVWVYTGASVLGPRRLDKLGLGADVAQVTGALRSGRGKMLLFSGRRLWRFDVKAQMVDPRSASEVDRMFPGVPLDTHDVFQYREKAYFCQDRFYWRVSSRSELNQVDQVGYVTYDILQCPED
Protocol: biochemical
Assay type: cell-based
Measure Name: IC50

Example cases with answers are listed next.
CC(C)(Oc1ccc(C2CC2(Cl)Cl)cc1)C(=O)O (stereo not given) [CIPROFIBRATE] : Not Active
C#CCN(C)[C@H](C)Cc1ccccc1 : Not Active
CNC(=C[N+](=O)[O-])NCCSCc1csc(CN(C)C)n1 : Not Active
C/C=C\c1ccc(O)c(OC)c1 : Not Active
CC(=O)O[C@H]1C[C@@H]2CC[C@@H]3[C@H](CC[C@@]4(C)[C@H]3C[C@H]([N+]3(C)CCCCC3)[C@@H]4OC(C)=O)[C@@]2(C)C[C@@H]1N1CCCCC1.[Br-] [VECURONIUM BROMIDE] : Not Active

Challenge: Which IC50 is reported for this compound? "Nn1nnc2ccccc21"
Response given: Not Active

Challenge: Thanks! And "OCCN1CCN(CCCN2c3ccccc3Sc3ccc(Cl)cc32)CC1" ?
Response given: Not Active

Challenge: Another compound to look at: "CCOC(N)=O"
Response given: Not Active

Challenge: And the next one, CC(C)(CO)C(O)C(=O)NCCCO (stereo not given) ?
Response given: Not Active

Challenge: "O=P(O)(O)C(O)(Cc1cccnc1)P(=O)(O)O" , same question.
Response given: Not Active

====

Protocol: DRUGMATRIX: GABAA, Flunitrazepam, Central radioligand binding (ligand: [3H] Flunitrazepam)
Format: cell membranes, Rattus norvegicus, Wistar, Brain, Membrane
Conditions: Not Active = under 50% inhibition at 10 µM
Measure Name: Ki

Cc1c(F)c(N2CCNC(C)C2)cc2c1c(=O)c(C(=O)O)cn2C1CC1 (stereo not drawn) [GREPAFLOXACIN] : Not Active
CCC(=O)O[C@H]1[C@H](O[C@@H]2[C@@H](C)[C@H](O[C@H]3C[C@@](C)(OC)[C@@H](O)[C@H](C)O3)[C@@H](C)C(=O)O[C@H](CC)[C@@](C)(O)[C@H](O)[C@@H](C)C(=O)[C@H](C)C[C@@]2(C)O)O[C@H](C)C[C@@H]1N(C)C [ERYTHROMYCIN PROPIONATE] : Not Active
C/C=C\c1ccc(O)c(OC)c1 [ISOEUGENOL] : Not Active
